System: PANC-1
protocol details: Cytotoxicity against human PANC-1 cells assessed as inhibition of cell growth incubated for 24 hrs by MTT assay
Type: functional, cell-based
test context: PANC-1, 24 h
Recorded log10 of IC50, one value per entry.
test readout: log10 of IC50 (log10 of the value in µM)

1. CC[C@H](C)[C@@H]1NC(=O)[C@H](c2cc(O)c(C)c(O)c2)NC(=O)[C@H](NC(=O)[C@H](C)NC(=O)[C@H](NC(=O)CC(=O)[C@@H](C)C[C@@H](C)C[C@@H](C)[C@H](O)[C@@H](C)[C@@H](O)CC)[C@@H](C)O)[C@@H](C)NC(=O)CNC1=O : 1.62
2. CC[C@H](C)[C@@H]1NC(=O)[C@H](c2cc(O)c(C)c(O)c2)NC(=O)[C@H](NC(=O)[C@H](C)NC(=O)[C@H](NC(=O)CC(=O)[C@@H](C)C[C@@H](C)C[C@@H](C)[C@H](O)[C@@H](CO)[C@@H](O)CC)[C@@H](C)O)[C@@H](C)NC(=O)CNC1=O : 0.82
3. CC[C@H](O[C@@H]1O[C@H](CO)[C@@H](OC)[C@H](O)[C@H]1O)[C@H](C)[C@@H](O)[C@H](C)C[C@H](C)C[C@H](C)C(=O)CC(=O)N[C@@H](C(=O)N[C@@H](C)C(=O)N[C@H]1C(=O)N[C@@H](c2cc(O)c(C)c(O)c2)C(=O)N[C@@H]([C@@H](C)CC)C(=O)NCC(=O)N[C@@H]1C)[C@@H](C)O : 0.59
4. CCC(=O)[C@H](C)[C@@H](O)[C@H](C)C[C@H](C)C[C@H](C)C(=O)CC(=O)N[C@@H](C(=O)N[C@@H](C)C(=O)N[C@H]1C(=O)N[C@@H](c2cc(O)c(C)c(O)c2)C(=O)N[C@@H]([C@@H](C)CC)C(=O)NCC(=O)N[C@@H]1C)[C@@H](C)O : 0.98
5. CC[C@H](C)[C@@H]1NC(=O)[C@H](c2cc(O)c(C)c(O)c2)NC(=O)[C@H](NC(=O)[C@H](C)NC(=O)[C@H](NC(=O)CC(=O)[C@@H](C)C[C@@H](C)C[C@@H](C)[C@H](O)[C@@H](C)C(=O)[C@@H](C)O)[C@@H](C)O)[C@@H](C)NC(=O)CNC1=O : 0.81

###

Tested on: BXPC-3
protocol details: Cytotoxicity against human BXPC-3 cells assessed as inhibition of cell growth incubated for 24 hrs by MTT assay
Assay type: functional, cell-based
test context: BXPC-3, 24 h
Recorded IC50, one value per entry.
test readout: IC50

1. CC[C@H](C)[C@@H]1NC(=O)[C@H](c2cc(O)c(C)c(O)c2Cl)NC(=O)[C@H](NC(=O)[C@H](C)NC(=O)[C@H](NC(=O)CC(=O)[C@@H](C)C[C@@H](C)C[C@@H](C)[C@H](O)[C@@H](C)[C@@H](O[C@@H]2O[C@H](CO)[C@@H](OC)[C@H](O)[C@H]2O)[C@@H](C)O)[C@@H](C)O)[C@@H](C)NC(=O)CNC1=O : > 100 µM
2. CC[C@H](O[C@@H]1O[C@H](CO)[C@@H](OC)[C@H](O)[C@H]1O)[C@H](C)[C@@H](O)[C@H](C)C[C@H](C)C[C@H](C)C(=O)CC(=O)N[C@@H](C(=O)N[C@@H](C)C(=O)N[C@H]1C(=O)N[C@@H](c2cc(O)c(C)c(O)c2)C(=O)N[C@@H]([C@@H](C)CC)C(=O)NCC(=O)N[C@@H]1C)[C@@H](C)O : 3.9 µM
